Values compiled from PubChem BioAssay AID1159580.

Procedure Summary: chemical genetic growth profiling, strain panel (AID 1159580);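 further: tested at 20 µM; growth read once vehicle control cultures reached saturation at 30 °C; 1 = growth at the plate median or of vehicle wells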
Condition Parameters: S. cerevisiae deletion strains, growth OD, locus YCL016C, strain dcc1
Among all 5,500 compounds or so, about 2,000 (36%) were called active. Another 18% or so got no clear call; they are omitted. No stated cut-off is given here; in the data, active means normalized growth mostly below about 0.91 (no sharp cut-off); inconclusive means no clear call, values can overlap the other calls; inactive means mostly above about 0.92. This is one part of the list.
Classes used: active, inactive

1. C=NC(C(=O)NC1C(=O)N2C1SC(C)(C)C2C(=O)O)c1ccccc1 (stereo not drawn) : inactive
2. CC1C/C=C/C=C/C=C/C=C/C(O[C@@H]2O[C@H](C)[C@@H](O)[C@H](N)[C@@H]2O)CC2OC(O)(CC(O)CC3OC3/C=C/C(=O)O1)CC(O)C2C(=O)O (stereo partly drawn) : inactive
3. Cc1cc(/C=C/c2ccc3cc(N(C)C)ccc3[n+]2C)c(C)n1-c1ccccc1 : active
4. COc1c(C)c2c(c(O)c1C/C=C(\C)CCC(=O)O)C(=O)OC2 : active
5. CC(=O)C1CC[C@H]2C3CC[C@H]4C[C@H](O)CC[C@]4(C)C3CC[C@]12C (stereo partly drawn) : inactive
6. COC(=O)/C(C)=C\CC12OC(C)(C)C3CC(C=C4C(=O)c5c(OC)c6c(c(CC=C(C)C)c5OC431)OC(C)(CCC=C(C)C)C=C6)C2=O (stereo not drawn) : inactive
7. COc1cc(C)c2c(=O)cc(-c3ccccc3)oc2c1 : inactive
8. CN[C@@H]1C(OC2[C@H](O[C@H]3[C@H](O)[C@@H](O)[C@H](N=C(N)N)[C@@H](O)[C@@H]3N=C(N)N)OC(C)[C@]2(O)CO)OC(CO)C(O)C1O (stereo partly drawn) : inactive

----------
Procedure Summary: chemical genetic growth profiling, strain panel (AID 1159580);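 further: tested at 20 µM; growth read once vehicle control cultures reached saturation at 30 °C; 1 = growth at the plate median or of vehicle wells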
Condition Parameters: S. cerevisiae deletion strains, growth OD, locus YOR270C, strain vph1, stronger effect = lower value
Among all 5,500 compounds or so, about 2,000 (36%) were called active. About 18% were inconclusive and are not listed. This is one part of the list.
Each entry falls into one class according to its normalized growth; the ranges are low band: < 0.9; middle band: ≥ 0.9 and < 1; high band: ≥ 1

1) CC12CCCCC1(Br)[N+](=O)N2[O-] (configuration not stated) : low band
2) CN1CCC[C@@H]1CCO[C@](C)(c1ccccc1)c1ccc(Cl)cc1 : low band
3) CC(C)=CC1C(C(=O)OCc2cccc(Oc3ccccc3)c2)C1(C)C (configuration not stated) : middle band
4) FC(F)(F)c1cccc(N2CCNCC2)c1 : high band
5) Cc1oncc1C(=O)Nc1ccc(C(F)(F)F)cc1 : middle band
6) NC(=O)CS(=O)C(c1ccccc1)c1ccccc1 (configuration not stated) : high band
7) COP(=S)(OC)Oc1ccc(Sc2ccc(OP(=S)(OC)OC)cc2)cc1 : high band

----------
In this section we review reported normalized growth values for a set of molecules.
Procedure Summary: chemical genetic growth profiling, strain panel (AID 1159580);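 further: tested at 20 µM; growth read once vehicle control cultures reached saturation at 30 °C; 1 = growth at the plate median or of vehicle wells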
Condition Parameters: S. cerevisiae deletion strains, growth OD, locus YHR142W, strain chs7, stronger effect = lower value
In all, about 5,500 compounds went through this assay and about 2,000 (36%) were called active. Roughly 18% stayed inconclusive and do not appear here. The list shows a part of the results.
Reported Endpoint: normalized growth

1. C[C@]12C=CC(=O)C=C1CCC1C2[C@@H](O)C[C@@]2(C)C1CC[C@]2(O)C(=O)CO (stereo partly drawn) : 0.99 (inactive)
2. CC(=O)OC/C=C(\C)CC/C=C(\C)CC/C=C(\C)CC/C=C(\C)CC/C=C(\C)CC/C=C(\C)CC/C=C(\C)CC/C=C(\C)CCC=C(C)C : 0.917 (inactive)
3. CC(C)c1nc(N(C)S(C)(=O)=O)nc(-c2ccc(F)cc2)c1/C=C/[C@@H](O)C[C@@H](O)CC(=O)O : 1.02 (inactive)
